The origin of these recorded values is ChEMBL document CHEMBL1268956.

Target: UniProt P43115
Assay: Antagonist activity at human EP3 receptor expressed in human U2OS cells assessed as inhibition of PGE2-induced intracellular calcium mobilization by FLIPR assay
MEASURED PROPERTY: pKi
Lab note — pKi values are minus log10 of concentrations in M.

Please review the entries below; each comes with its answer.
                               entry_smiles  meas_value
0   O=C(Nc1ccccc1I)Nc1cccn(Cc2ccccc2Cl)c1=O        5.30
1  COc1cccc(NC(=O)Nc2cccn(Cc3ccc(F)cc3Cl)c2=O)c1        6.40
2  COc1cccc(NC(=O)Nc2cccn(Cc3ccc(F)cc3)c2=O)c1        5.90

Recorded pKi for O=C(Nc1cccc(Br)c1)Nc1cccn(Cc2ccccc2Cl)c1=O , please?
6.00

Recorded pKi for COc1cccc(NC(=O)Nc2cccn(Cc3ccccc3F)c2=O)c1 , please?
6.30

Recorded pKi for COc1cccc(NC(=O)Nc2cccn(Cc3cccc(C)c3)c2=O)c1 , please?
5.90

----------
Target: Prostaglandin E2 receptor EP2 subtype (Homo sapiens, UniProt P43116)
Sequence (P43116 whole entry): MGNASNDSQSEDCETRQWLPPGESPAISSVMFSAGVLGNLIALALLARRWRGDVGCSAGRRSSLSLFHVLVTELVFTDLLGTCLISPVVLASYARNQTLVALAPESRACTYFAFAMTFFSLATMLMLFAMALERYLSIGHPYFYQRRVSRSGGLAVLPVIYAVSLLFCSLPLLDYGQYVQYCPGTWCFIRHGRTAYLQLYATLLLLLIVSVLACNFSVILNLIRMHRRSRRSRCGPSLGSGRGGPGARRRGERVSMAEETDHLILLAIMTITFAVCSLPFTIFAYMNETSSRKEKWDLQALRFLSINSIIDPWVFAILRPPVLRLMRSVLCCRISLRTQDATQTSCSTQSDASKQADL
pKi: −log10 of the molar value.
MEASURED PROPERTY: pKi

Recorded pKi for CCc1cccc(NC(=O)Nc2cccn(Cc3ccccc3Cl)c2=O)c1 , please?
< 5.00

----------
Assay: Clearance in rat blood at 1.2 mg/kg, iv and 2 mg/kg, po
Format: ADME, organism-based
MEASURED PROPERTY: clearance (mL/min/kg)
Just the number in mL/min/kg, nothing appended.

Recorded clearance for COc1cccc(NC(=O)Nc2cccn(Cc3ccccc3Cl)c2=O)c1 , please?
24

----------
Assay: Volume of distribution at steady state in rat blood at 1.2 mg/kg, iv and 2 mg/kg, po
Format: ADME, organism-based
Details: read-out: Vdss
MEASURED PROPERTY: Vd (L/kg)
Just the number in L/kg, nothing appended.

Recorded Vd for COc1cccc(NC(=O)Nc2cccn(Cc3ccccc3Cl)c2=O)c1 , please?
3.4

----------
Experiment: Oral bioavailability in rat blood at 1.2 mg/kg, iv and 2 mg/kg, po
Format: ADME, organism-based
MEASURED PROPERTY: bioavailability (%)
Just the number in %, nothing appended.

Recorded bioavailability for COc1cccc(NC(=O)Nc2cccn(Cc3ccccc3Cl)c2=O)c1 , please?
27

----------
Target: Prostaglandin E2 receptor EP4 subtype (Homo sapiens, UniProt P35408)
Sequence (P35408 whole entry): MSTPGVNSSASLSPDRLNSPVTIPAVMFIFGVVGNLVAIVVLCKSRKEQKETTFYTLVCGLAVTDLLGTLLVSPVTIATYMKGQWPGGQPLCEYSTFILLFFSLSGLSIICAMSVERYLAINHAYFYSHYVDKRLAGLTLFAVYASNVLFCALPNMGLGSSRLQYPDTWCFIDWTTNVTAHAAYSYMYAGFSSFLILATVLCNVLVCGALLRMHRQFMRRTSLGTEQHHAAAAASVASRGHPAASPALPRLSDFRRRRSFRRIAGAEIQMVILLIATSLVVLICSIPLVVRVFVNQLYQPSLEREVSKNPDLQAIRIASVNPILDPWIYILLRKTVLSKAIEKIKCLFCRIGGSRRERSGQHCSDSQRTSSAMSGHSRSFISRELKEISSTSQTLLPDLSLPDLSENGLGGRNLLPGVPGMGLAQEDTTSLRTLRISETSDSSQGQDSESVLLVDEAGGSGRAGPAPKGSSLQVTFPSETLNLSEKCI
MEASURED PROPERTY: Ki

Recorded Ki for CCc1cccc(NC(=O)Nc2cccn(Cc3ccccc3Cl)c2=O)c1 , please?
> 10 µM

----------
Target: Prostaglandin E2 receptor EP3 subtype (Homo sapiens, UniProt P43115)
Experiment: Antagonist activity at human EP3 receptor expressed in human U2OS cells assessed as inhibition of PGE2-induced intracellular calcium mobilization by FLIPR assay
Below, each entry is listed alongside its reported Ki.
Just the number plus its unit, please.

In [3]: df
Out[3]:
                               entry_smiles  measured_property  meas_value
0  CCc1cccc(NC(=O)Nc2cccn(Cc3ccccc3Cl)c2=O)c1                 Ki     50.1 nM
1  CCc1cccc(NC(=O)Nc2cccn(Cc3cccc(C(F)(F)F)c3)c2=O)c1                 Ki      200 nM

Now consider a different molecule.
Recorded Ki for O=C(Nc1cccc(I)c1)Nc1cccn(Cc2ccccc2Cl)c1=O , please?
398 nM

----------
Target: Prostaglandin E2 receptor EP3 subtype (Homo sapiens, UniProt P43115)
Sequence (P43115 whole entry): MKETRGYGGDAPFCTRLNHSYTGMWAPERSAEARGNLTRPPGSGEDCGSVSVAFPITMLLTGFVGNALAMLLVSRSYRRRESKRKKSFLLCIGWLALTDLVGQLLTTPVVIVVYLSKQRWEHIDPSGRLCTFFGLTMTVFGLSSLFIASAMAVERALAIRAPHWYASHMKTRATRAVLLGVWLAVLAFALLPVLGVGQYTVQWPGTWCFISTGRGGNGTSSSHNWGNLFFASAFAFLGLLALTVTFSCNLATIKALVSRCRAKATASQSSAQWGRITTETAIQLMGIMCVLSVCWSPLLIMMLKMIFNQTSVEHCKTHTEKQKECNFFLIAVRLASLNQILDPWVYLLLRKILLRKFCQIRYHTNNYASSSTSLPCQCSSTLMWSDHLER
Test: Antagonist activity at human EP3 receptor expressed in human U2OS cells assessed as inhibition of PGE2-induced intracellular calcium mobilization by FLIPR assay
Note to self: use yes (1) only for Ki readings below 400 nM; a reading exactly at 400 nM still gets no (0).

Solved cases below.
In [3]: df
Out[3]:
                               entry_smiles  label_value
0  CCc1cccc(NC(=O)Nc2c(C)ccn(Cc3ccccc3Cl)c2=O)c1       no (0)
1  CCc1cccc(NC(=O)Nc2cccn(Cc3c(F)cccc3Cl)c2=O)c1      yes (1)
2  O=C(Nc1ccc(C(F)(F)F)cc1)Nc1cccn(Cc2ccccc2Cl)c1=O       no (0)
3  COc1cccc(NC(=O)Nc2cccn(Cc3ccccc3)c2=O)c1       no (0)
4  COc1cccc(C(=O)Nc2cccn(Cc3ccccc3Cl)c2=O)c1       no (0)
5  O=C(Nc1cccc(F)c1)Nc1cccn(Cc2ccccc2Cl)c1=O       no (0)
6  CC(=O)c1cccc(NC(=O)Nc2cccn(Cc3ccccc3Cl)c2=O)c1       no (0)
7  COC(=O)Cc1cccc(NC(=O)Nc2cccn(Cc3ccccc3Cl)c2=O)c1       no (0)
8  O=C(O)Cc1cccc(NC(=O)Nc2cccn(Cc3ccccc3Cl)c2=O)c1       no (0)
9  CCc1cccc(NC(=O)Nc2cccn(Cc3ccccc3F)c2=O)c1      yes (1)

Please determine if COc1ccccc1NC(=O)Nc1cccn(Cc2ccccc2Cl)c1=O is below 400 nM in terms of Ki.
no (0)

Please determine if O=C(Nc1ccccc1F)Nc1cccn(Cc2ccccc2Cl)c1=O is below 400 nM in terms of Ki.
yes (1)

Please determine if O=C(Nc1ccc(Cl)cc1)Nc1cccn(Cc2ccccc2Cl)c1=O is below 400 nM in terms of Ki.
no (0)

Please determine if COc1ccc(Cn2cccc(NC(=O)Nc3cccc(OC)c3)c2=O)cc1 is below 400 nM in terms of Ki.
no (0)

Please determine if Cc1ccccc1NC(=O)Nc1cccn(Cc2ccccc2Cl)c1=O is below 400 nM in terms of Ki.
no (0)

Please determine if COc1cccc(NC(=O)Nc2cccn(Cc3cc(F)ccc3Cl)c2=O)c1 is below 400 nM in terms of Ki.
no (0)

Please determine if O=C(Nc1cccc(Cl)c1)Nc1cccn(Cc2ccccc2Cl)c1=O is below 400 nM in terms of Ki.
no (0)

----------
Below, each entry is listed alongside its reported pKi.
Molecular target: Prostaglandin E2 receptor EP3 subtype (Homo sapiens)
Test: Antagonist activity at human EP3 receptor expressed in human U2OS cells assessed as inhibition of PGE2-induced intracellular calcium mobilization by FLIPR assay
Lab note — pKi values are minus log10 of concentrations in M.

Please review the entries below; each comes with its answer.
>>> df
                               entry_smiles  meas_value
0  CCc1cccc(NC(=O)Nc2cccn(Cc3ccc(F)cc3Cl)c2=O)c1        6.90
1  COc1cccc(NC(=O)Nc2cccn(Cc3ccccc3Cl)c2=O)c1        6.80

Recorded pKi for COc1cccc(NC(=O)Nc2cccn(Cc3ccccc3Br)c2=O)c1 , please?
6.50
